Data credit: ChEMBL document CHEMBL4304804

- Test system: Bacillus cereus
- ASSAY NOTES: Antibacterial activity against Bacillus cereus assessed as reduction in bacterial cell growth incubated for 24 hrs by filter paper assay
- Format: functional
MEASUREMENT KIND: MIC

Ask: // lookup MIC for CC1(C)S[C@@H]2[C@H](NC(=O)Cc3ccccc3)C(=O)N2[C@H]1C(=O)O
Result: 7.81 µg/mL

Ask: // lookup MIC for Cc1cccc(CN2c3ccccc3C3(Cc4cccc(C)c4)CCN(C(=O)COc4ccccc4)C23)c1 (configuration not stated)
Result: 250 µg/mL

Ask: // lookup MIC for Cc1cccc(CN2c3ccccc3C3(Cc4cccc(C)c4)CCN(C(=O)c4ccccc4C)C23)c1 (configuration not stated)
Result: 125 µg/mL

Ask: // lookup MIC for CCCCCCCC(=O)N1CCC2(Cc3ccccc3C)c3ccccc3N(Cc3ccccc3C)C12 (configuration not stated)
Result: 62.5 µg/mL

Ask: // lookup MIC for Cc1ccccc1CN1c2ccccc2C2(Cc3ccccc3C)CCN(C(=O)c3ccccc3C)C12 (configuration not stated)
Result: 250 µg/mL

Ask: // lookup MIC for CCCC(=O)N1CCC2(Cc3cccc(C)c3)c3ccccc3N(Cc3cccc(C)c3)C12 (configuration not stated)
Result: 250 µg/mL

---

- Tested on: Cryptococcus neoformans
- ASSAY NOTES: Antifungal activity against Cryptococcus neoformans assessed as reduction in fungal cell growth incubated for 48 hrs by serial dilution method
- Assay type: functional
Active and inactive are the calls of the source. The rule behind the calls is not given here.
MEASUREMENT KIND: MIC

Here are 5 molecules together with their reported answers.
MOLECULE	MIC
Cc1cccc(CN2c3ccccc3C3(Cc4cccc(C)c4)CCN(C(=O)c4ccccc4C)C23)c1 (stereo unspecified)	inactive
Cc1ccccc1CN1c2ccccc2C2(Cc3ccccc3C)CCN(S(=O)(=O)c3ccccc3)C12 (stereo unspecified)	inactive
Cc1cccc(CN2c3ccccc3C3(Cc4cccc(C)c4)CCN(C(=O)CCc4ccccc4)C23)c1 (stereo unspecified)	inactive
Cc1cccc(CN2c3ccccc3C3(Cc4cccc(C)c4)CCN(C(=O)C(F)(F)F)C23)c1 (stereo unspecified)	inactive
Cc1cccc(CN2c3ccccc3C3(Cc4cccc(C)c4)CCN(C(=O)COc4ccccc4)C23)c1 (stereo unspecified)	inactive

Ask: // lookup MIC for CCCCC(=O)N1CCC2(Cc3cccc(C)c3)c3ccccc3N(Cc3cccc(C)c3)C12 (stereo unspecified)
Result: inactive

Ask: // lookup MIC for CCCCC(=O)N1CCC2(Cc3ccccc3C)c3ccccc3N(Cc3ccccc3C)C12 (stereo unspecified)
Result: inactive

Ask: // lookup MIC for CCCCCCCC(=O)N1CCCC2(O)c3ccccc3N(C)C12 (stereo unspecified)
Result: 125 µg/mL

Ask: // lookup MIC for CCCCCCCC(=O)N1CCC2(Cc3cccc(C)c3)c3ccccc3N(Cc3cccc(C)c3)C12 (stereo unspecified)
Result: 125 µg/mL

---

- Test system: Penicillium citrinum
- ASSAY NOTES: Antifungal activity against Penicillium citrinum assessed as reduction in fungal cell growth incubated for 48 hrs by serial dilution method
- Type: functional
Active and inactive are the calls of the source. The rule behind the calls is not given here.
MEASUREMENT KIND: MIC

Here are 4 molecules together with their reported answers.
MOLECULE	MIC
CCC(=O)N1CCCC2(O)c3ccccc3N(C)C12 (configuration not stated)	inactive
CN1c2ccccc2C2(O)CCCN(C(=O)c3cccc(F)c3)C12 (configuration not stated)	inactive
Cc1ccccc1CN1c2ccccc2C2(Cc3ccccc3C)CCN(C(=O)C(F)(F)F)C12 (configuration not stated)	inactive
CCCCCCC(=O)N1CCC2(Cc3ccccc3C)c3ccccc3N(Cc3ccccc3C)C12 (configuration not stated)	125 µg/mL

Ask: // lookup MIC for CCCCCCCC(=O)N1CCC2(Cc3ccccc3C)c3ccccc3N(Cc3ccccc3C)C12 (configuration not stated)
Result: 250 µg/mL

Ask: // lookup MIC for CC(=O)N1CCCC2(O)c3ccccc3N(C)C12 (configuration not stated)
Result: inactive

Ask: // lookup MIC for Cc1cccc(CN2c3ccccc3C3(Cc4cccc(C)c4)CCN(C(=O)c4ccccc4C)C23)c1 (configuration not stated)
Result: inactive

Ask: // lookup MIC for CCCCC(=O)N1CCC2(Cc3ccccc3C)c3ccccc3N(Cc3ccccc3C)C12 (configuration not stated)
Result: 250 µg/mL
